Exercise: state measured melting point for each of the compounds provided.

Prompt: Return melting point for the following compound: N#CCc1c[nH]c2cccc(Cl)c12
Response: 134 to 136 °C

Prompt: State its melting point: COc1ccc(CC(=O)NC(=NOCC2CC2)c2c(F)cccc2C(F)(F)F)cc1
Response: 75 to 76 °C

Prompt: Give reported melting point value for CCCCC(Cc1ccc(OCCNC(=O)c2ccc(-c3ccc(CN(C)C)cc3)cc2)cc1)C(=O)O (stereo not given)
Response: 125 to 127 °C

Prompt: Give reported melting point value for Cc1nc2cccc3n(CCCCNS(=O)(=O)C(F)(F)F)c(=O)c1n23
Response: 195 to 196 °C

Prompt: Supply melting point value. Item: CCOC(=O)c1cn(NCC=O)c2c(OCc3ccccc3)c(F)c(F)cc2c1=O
Response: 180 to 181 °C

###

Kindly supply the reported melting point values for the records listed here.

Prompt: Note melting point for the compound shown: CCCCOc1c(CN2C(=O)c3ccccc3C2=O)n(CC2CC2)c(=O)c2ccc(Br)cc12
Response: 156 to 157 °C

Prompt: For the compound CN(C)CCNC(=O)C(Sc1nc2cc(Cl)ccc2s1)c1ccccc1 (stereo not given) , report melting point.
Response: 108 to 109 °C

Prompt: Please supply the value of reported melting point for the item COC(=O)c1[nH]c2c(C)ccc(C)c2c1C=O
Response: 174 to 175 °C

Prompt: Respond only with melting point recorded for CC(C)(C)OC(=O)N1CCC(C(=O)Nc2ccccc2Oc2ccc(Cl)cc2)CC1
Response: 97 to 99 °C

Prompt: Complete the entry with melting point for Cc1cccc(-c2nc(O)cc(-c3ccccc3Cl)n2)n1
Response: 196 °C

Prompt: Name the recorded melting point of the compound listed here: COc1ccc(C(=O)Nc2ccccc2)cc1NS(=O)(=O)c1cccc2c(N(C)C)cccc12
Response: 231 to 232 °C

Prompt: Give melting point for O=C1N(CC2CCN(c3ccccn3)CC2)c2ccccc2C12COc1cc3c(cc12)OCO3 (stereo not given)
Response: 95 to 97 °C

Prompt: Write down melting point measured for item O=C(CCNC(=O)[C@H](Cc1ccc(-c2ccccc2)cc1)NCP(=O)(O)Oc1ccccc1)OCc1ccccc1
Response: 243 to 244 °C

Prompt: Input O=c1[nH]c2ccccc2n1CCN1CCN(Cc2ccccc2)CC1 , output reported melting point.
Response: 136 °C

Prompt: Identify measured melting point corresponding to Oc1ccc(C(O)(c2ccccc2)C(CCCCl)c2ccccc2)cc1 (stereo not given)
Response: 75 to 78 °C

Prompt: Look up melting point of COc1cc(C(C)C)c2c(c1)S(=O)(=O)N(COc1cc(C(F)(F)F)nn1-c1ccc3ccccc3n1)C2=O and report it.
Response: 124 to 125 °C

Prompt: Using the record for O=c1[nH]c(=O)n(Cc2ccc(Cl)cc2)c2nc[nH]c12 , state its measured melting point.
Response: 304 to 310 °C

Prompt: // fetch melting point given entry CCC(=O)N(c1ccncc1)c1c[nH]c2ccccc12
Response: 166 to 168 °C

Prompt: Indicate the recorded melting point value for this compound: O=c1ccc(-c2c(-c3ccccc3)nn3ccccc23)nn1[C@H]1CCNC1
Response: 144 to 146 °C

Prompt: Quickly give me recorded melting point for O=C(O)c1cc2cnc3ccccc3n2c1
Response: 242 to 247 °C

Prompt: Give melting point for CC(=O)c1cn(C(c2ccccc2)(c2ccccc2)c2ccccc2)cn1
Response: 158 to 160 °C

Prompt: Give me measured melting point, please, for this compound: c1ccc(-c2c[nH]nc2-c2ccccc2)cc1
Response: 150 to 152 °C

Prompt: Tell us which melting point value is on record for O=C1NCC2=C1CN=C(c1ccccc1Cl)c1cc(Cl)ccc12
Response: 243 to 244 °C

Prompt: Answer with the recorded melting point for the compound listed here: O=C(Nc1nc(C(Cl)(Cl)Cl)ns1)c1ccc(Cl)cc1Cl
Response: 136 °C

Prompt: Name the recorded melting point of the compound listed here: CC(C)C[C@H](NC(=O)[C@H](CS)C(F)(F)F)c1nnn[nH]1
Response: 183 to 184 °C

From: a melting point compilation (Tetko et al.; mined from patent text by program, amines drawn as free bases though some values may be those of a salt)
